Target Or System: Human TASK-1 channels (Homo sapiens (Human), UniProt O14649)
Sequence (O14649 whole entry): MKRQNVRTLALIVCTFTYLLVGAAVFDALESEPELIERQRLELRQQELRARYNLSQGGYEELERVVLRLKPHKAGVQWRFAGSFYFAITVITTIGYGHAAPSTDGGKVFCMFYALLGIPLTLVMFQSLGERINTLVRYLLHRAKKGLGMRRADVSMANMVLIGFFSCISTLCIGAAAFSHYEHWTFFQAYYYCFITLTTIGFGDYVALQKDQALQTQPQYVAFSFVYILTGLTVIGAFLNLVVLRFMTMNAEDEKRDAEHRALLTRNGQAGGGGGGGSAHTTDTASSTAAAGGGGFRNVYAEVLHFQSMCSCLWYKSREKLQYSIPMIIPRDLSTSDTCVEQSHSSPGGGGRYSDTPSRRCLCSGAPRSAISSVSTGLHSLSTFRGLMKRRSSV
Assay Info: Determination of the activity on the TASK-1 channel in Xenopus oocytes (two-microelectrode voltage clamp)
Condition Notes: human TASK-1 expressed in Xenopus oocytes, room temperature; read-out: IC50 value for TASK-1 inhibition
Protocol: Determination of the activity on the TASK-1 channel in Xenopus oocytes Human TASK-1 channels were expressed in Xenopus oocytes. For this purpose, oocytes were isolated from Xenopus laevis and defoliculated. […] After two days of TASK-1 protein expression, TASK-1 currents were measured by two-microelectrode voltage clamp. […] Oocytes were clamped to −90 mV and TASK-1 mediated currents were measured during 500 ms voltage pulses to 40 mV. […]
// values below are reported IC50
Assay Readout: IC50 (nM)

[[record]]
compound = "C[C@H]1CCCN1C(=O)c1cc(C(=O)NCc2c(F)cccc2Cl)c2n1CCOC2 [16nu]"
assay_readout = "IC50"
readout_unit = "nM"
experimental_result = 150

[[record]]
compound = "CC[C@@H](NC(=O)c1cc(C(=O)N[C@H](C)c2ccc(F)cc2)n2c1COCC2)c1ccc(C(F)(F)F)cc1 [16eb]"
assay_readout = "IC50"
readout_unit = "nM"
experimental_result = 250

[[record]]
compound = "CC[C@H](NC(=O)c1cc(C(=O)N[C@H](CC)c2ccccc2)c2n1CCOC2)c1cnccn1 [16hx]"
assay_readout = "IC50"
readout_unit = "nM"
experimental_result = 57

[[record]]
compound = "CC[C@@H](NC(=O)c1cc(C(=O)N2CCC[C@@H]2C)n2c1COCC2)c1c(Cl)cncc1Cl [16bv]"
assay_readout = "IC50"
readout_unit = "nM"
experimental_result = 140

[[record]]
compound = "CC[C@@H](NC(=O)c1cc(C(=O)N[C@H](C)c2cnccn2)n2c1COCC2)c1ccccc1Cl [16nq]"
assay_readout = "IC50"
readout_unit = "nM"
experimental_result = 480

[[record]]
compound = "CC[C@@H](NC(=O)c1cc(C(=O)N[C@H](CC)c2ccccc2)n2c1SCC2)c1ccccc1 [16kv]"
assay_readout = "IC50"
readout_unit = "nM"
experimental_result = 320

[[record]]
compound = "CC[C@@H](NC(=O)c1cc(C(=O)N2CCC[C@@H]2C)n2c1COCC2)c1cnc(OC)c(C(F)(F)F)c1 [16cn]"
assay_readout = "IC50"
readout_unit = "nM"
experimental_result = 100

[[record]]
compound = "CC[C@@H](NC(=O)c1cc(C(=O)N2CCC[C@@H]2C)n2c1COCC2)c1ccc(C#N)cc1Cl [16bb]"
assay_readout = "IC50"
readout_unit = "nM"
experimental_result = 790

[[record]]
compound = "CC[C@@H](NC(=O)c1cc(C(=O)Nc2cnoc2)c2n1CCOC2)c1ccccc1 [16jv]"
assay_readout = "IC50"
readout_unit = "nM"
experimental_result = 210

[[record]]
compound = "CC[C@@H](NC(=O)c1cc(C(=O)N2CCC[C@@H]2C)n2c1COCC2)c1ccc(C(F)(F)F)cc1Cl [16cq]"
assay_readout = "IC50"
readout_unit = "nM"
experimental_result = 300

[[record]]
compound = "CC[C@@H](NC(=O)c1cc(C(=O)N[C@H](CC)c2cccc(C(=O)O)c2)n2c1COCC2)c1ccccc1 [16rm]"
assay_readout = "IC50"
readout_unit = "nM"
experimental_result = 4900

[[record]]
compound = "CC[C@@H](NC(=O)c1cc(C(=O)N(C)Cc2ccc(F)cc2)n2c1CCCC2)c1ccccc1 [16mu]"
assay_readout = "IC50"
readout_unit = "nM"
experimental_result = 75

[[record]]
compound = "CC[C@@H](NC(=O)c1cc(C(=O)N2CCC(F)(F)CC2)n2c1CCCC2)c1ccccc1 [16mo]"
assay_readout = "IC50"
readout_unit = "nM"
experimental_result = 1900

[[record]]
compound = "C[C@@H](NC(=O)c1cc(C(=O)N[C@H](C)c2ccc(F)cc2)n2c1COCC2)c1ccc(F)cc1 [16dm]"
assay_readout = "IC50"
readout_unit = "nM"
experimental_result = 125

[[record]]
compound = "CC[C@@H](NC(=O)c1cc(C(=O)N2CCC[C@@H]2C)n2c1COCC2)c1cccc(OC)n1 [16z]"
assay_readout = "IC50"
readout_unit = "nM"
experimental_result = 270

[[record]]
compound = "CC[C@@H](NC(=O)c1cc(C(=O)NCc2ncccn2)n2c1COCC2)c1ccccc1 [16hj]"
assay_readout = "IC50"
readout_unit = "nM"
experimental_result = 530

[[record]]
compound = "CC[C@@H](NC(=O)c1cc(C(=O)N[C@H](CC)c2ccccc2)n2c1COCC2)c1ccc(C(F)(F)F)nc1 [16jy]"
assay_readout = "IC50"
readout_unit = "nM"
experimental_result = 180

[[record]]
compound = "CC[C@@H](NC(=O)c1cc(C(=O)NCC(CC2CC2)c2ccccc2)n2c1CCCC2)c1ccccc1 (some centres unmarked) [16na]"
assay_readout = "IC50"
readout_unit = "nM"
experimental_result = 1700

[[record]]
compound = "CC[C@@H](NC(=O)c1cc(C(=O)N[C@H](CC)c2ncccn2)c2n1CCOC2)c1ccccc1 [16kd]"
assay_readout = "IC50"
readout_unit = "nM"
experimental_result = 140

[[record]]
compound = "CC[C@@H](NC(=O)c1cc(C(=O)N2CCC[C@@H]2C)n2c1COCC2)c1ccc(OC)cc1 [16at]"
assay_readout = "IC50"
readout_unit = "nM"
experimental_result = 400

[[record]]
compound = "CC[C@@H](NC(=O)c1cc(C(=O)N2CCCC2(C)C)n2c1COCC2)c1ccccc1 [16fb]"
assay_readout = "IC50"
readout_unit = "nM"
experimental_result = 130

[[record]]
compound = "CC[C@@H](NC(=O)c1cc(C(=O)N2CCC[C@@H]2C(C)C)c2n1CCOC2)c1ccccc1 [16kl]"
assay_readout = "IC50"
readout_unit = "nM"
experimental_result = 210

[[record]]
compound = "CC[C@@H](NC(=O)c1cc(C(=O)N2CCOCC2)n2c1COCC2)c1ccccc1 [16eh]"
assay_readout = "IC50"
readout_unit = "nM"
experimental_result = 1700

[[record]]
compound = "CC[C@@H](NC(=O)c1cc(C(=O)NCc2ccc(C(=O)OC)cc2)n2c1COCC2)c1ccccc1 [16ir]"
assay_readout = "IC50"
readout_unit = "nM"
experimental_result = 350

[[record]]
compound = "CC[C@@H](NC(=O)c1cc(C(=O)N2CCC[C@@H]2C)n2c1COCC2)c1ccc(C(F)(F)F)s1 [16cf]"
assay_readout = "IC50"
readout_unit = "nM"
experimental_result = 21

[[record]]
compound = "CC[C@@H](NC(=O)c1cc(C(=O)N2CCC[C@@H]2C(C)O)n2c1COCC2)c1ccccc1 (some centres unmarked) [16ey]"
assay_readout = "IC50"
readout_unit = "nM"
experimental_result = 4700

[[record]]
compound = "CC[C@@H](NC(=O)c1cc(C(=O)N[C@H](CC)c2ccc(F)cc2)n2c1C(C)OCC2)c1ccccc1 (some centres unmarked) [16lh]"
assay_readout = "IC50"
readout_unit = "nM"
experimental_result = 190

[[record]]
compound = "CC[C@@H](NC(=O)c1cc(C(=O)N2CCC[C@@H]2C)n2c1COCC2)c1c(F)cc(C#N)cc1F [16ba]"
assay_readout = "IC50"
readout_unit = "nM"
experimental_result = 140

[[record]]
compound = "CC[C@@H](NC(=O)c1cc(C(=O)NC(C)c2ncccn2)c2n1CCOC2)c1ccc(F)cc1Cl (some centres unmarked) [16kp]"
assay_readout = "IC50"
readout_unit = "nM"
experimental_result = 280

[[record]]
compound = "CC[C@@H](NC(=O)c1cc(C(=O)NCc2cnccn2)n2c1C(C)OCC2)c1ccccc1 (some centres unmarked) [16li]"
assay_readout = "IC50"
readout_unit = "nM"
experimental_result = 900

[[record]]
compound = "CCC(NC(=O)c1cc(C(=O)N2CCCC2)n2c1COCC2)c1ccccc1OC(F)F (centres unmarked) [16cz]"
assay_readout = "IC50"
readout_unit = "nM"
experimental_result = 310

[[record]]
compound = "CC[C@@H](NC(=O)c1cc(C(=O)N2CCC[C@@H]2C)n2c1CSCC2)c1ccccc1 [16kz]"
assay_readout = "IC50"
readout_unit = "nM"
experimental_result = 270

